# subjectOfTest: human FGFR3b-Fc (human, UniProt P22607-2 23-377)
# measurementDescription: bead flow cytometry
pKd: −log10 of the molar value.
measurementKind: pKd

Query: Look up and state reported pKd for GCCGAUGGUUUUGUGGCCGUUUGAGGUUCCUACGGC (structured_RNA, 2'-fluoro C and U; 3' inverted dT (not in string)) [iR3]
Result: ~7.32
